- experiment_notes: qHTS assay for small molecule agonists of retinoid X receptor alpha signaling (AID 588544)
- conditions: HEK293T RXRa-UAS-bla, beta-lactamase reporter, 18 h; 530 nm emission
Results filed as inconclusive are left out.
Answer each item with its documented max response.
Give bare numbers, in %.

INSERT INTO results (compound, measured_parameter, measure_unit, endpoint_result) VALUES
  ('Cc1cc2nc(N)sc2cc1C', 'max response', '%', -11.8);

// each compound listed below needs its max response
1. CCCCCCCCOc1ccc(C(=O)O)cc1
2. CCCCCCc1ccc(-c2ccc(C#N)cc2)cc1

Completion:
1. -15.5
2. -25.6
